# Study system: APOL1 (Homo sapiens, UniProt O14791)
# Sequence (O14791 whole entry S342G/I384M, form open): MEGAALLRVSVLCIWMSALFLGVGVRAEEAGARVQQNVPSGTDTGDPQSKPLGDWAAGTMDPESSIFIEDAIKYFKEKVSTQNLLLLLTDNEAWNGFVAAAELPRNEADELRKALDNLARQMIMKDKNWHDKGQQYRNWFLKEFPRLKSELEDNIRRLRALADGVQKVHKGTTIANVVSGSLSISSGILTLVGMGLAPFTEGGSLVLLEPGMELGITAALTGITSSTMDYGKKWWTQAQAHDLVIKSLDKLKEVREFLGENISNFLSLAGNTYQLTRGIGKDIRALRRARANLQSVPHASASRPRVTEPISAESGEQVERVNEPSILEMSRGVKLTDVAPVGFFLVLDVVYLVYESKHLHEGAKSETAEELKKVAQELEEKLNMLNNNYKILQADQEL
# Assay overview: MultiTox-Fluor Multiplex Cytotoxicity Assay in tet-inducible APOL1 T-REx-HEK293 cells (cell rescue, ratio of dead to live cells)
# Condition: tet-inducible transgenic APOL1 T-REx-HEK293 cell lines, 50 ng/mL tet, 24 hours; read-out: IP50 (i.e., IC50 for cell proliferation)
Measured IC50, listed per entry.

Take a look at these entries with their results.
[
  {
    "Compound": "Cc1c[nH]c(=O)c(CN2CC[C@]3(C[C@@H]2C)OCCc2cc(CC(F)F)sc23)c1",
    "IC50": "500 to 1000 nM"
  },
  {
    "Compound": "CCc1cc2c(s1)CCO[C@@]21CCN(Cc2cn(CC(C)(C)OCCO)nn2)[C@@H](C)C1",
    "IC50": "100 to 500 nM"
  },
  {
    "Compound": "CCc1cc2c(s1)CCO[C@@]21CCN(CC2CN(C(=O)Cc3cnn(C)c3)C2)[C@@H](C)C1",
    "IC50": "100 to 500 nM"
  },
  {
    "Compound": "C[C@H]1C[C@@]2(CCN1CC1CCC1)OCCc1cc(CC(F)F)sc12",
    "IC50": "100 to 500 nM"
  },
  {
    "Compound": "CCc1cc2c(s1)CCO[C@@]21CCN(C[C@H]2C[C@@H](NC(=O)OCc3ccccc3Cl)C2)[C@@H](C)C1",
    "IC50": "100 to 500 nM"
  },
  {
    "Compound": "Cc1cccc(CN2CC[C@]3(C[C@@H]2C)OC[C@H](O)c2cc(Cl)sc23)n1",
    "IC50": "500 to 1000 nM"
  }
]

State the recorded IC50 for this entry: CCc1cc2c(s1)CCO[C@@]21CCN(Cc2cn(CC(C)(CO)OC)nn2)[C@@H](C)C1 (some centres unmarked)
100 to 500 nM

What do we get for Cn1cc(CN2CCC3(CC2)OCC(C)(C)c2sc(Cl)cc23)cn1 ?
< 100 nM
